Attribution: PubChem BioAssay (NCI)

- METHOD SUMMARY: NCI Yeast Anticancer Drug Screen. Data for the sgs1 mgt1 strain (AID 161)
- CONDITIONS USED: S. cerevisiae sgs1 mgt1 strain; at 50.0 µM unless noted
Compounds without any hit were thinned out: in the full panel of roughly 79,000, 15% have a hit. The source made the active and inactive calls. No stated cut-off is given here; in the data, active means growth inhibition above about 70%; inactive means the rest.
Outcomes: active, inactive

{"columns": ["COMPOUND", "ASSIGNED CLASS"],
 "data": [
  ["Cc1cc(=O)n(-c2ccccc2)c(=O)[nH]1", "inactive"],
  ["O=C(O)COc1ccc(NC(=O)COc2ccc(Cl)c(Cl)c2)cc1", "inactive"],
  ["Brc1ccc2c(ccc3c2nnc2ncnn23)c1", "inactive"],
  ["O=c1cc(-c2ccccc2)[nH]c2c(F)ccc(F)c12", "inactive"],
  ["O=C1CSC(c2ccc(F)cc2F)N1c1nncs1 (configuration not stated)", "inactive"],
  ["N#CC(c1ccccc1)c1ccc2ccccc2n1 (configuration not stated)", "inactive"],
  ["C1CSCCSS[C@@H]2CCCCC2SC1 (some centres not stated)", "inactive"],
  ["COCC(C)OC(=O)COc1ccccc1 (configuration not stated)", "inactive"],
  ["CCCC1SCC(=O)N1c1nncs1 (configuration not stated)", "inactive"],
  ["CN(C)Cc1cc(-c2c(Cl)cccc2Cl)no1", "inactive"],
  ["O=C(NC(Cc1ccc(I)cc1)C(=O)O)c1ccc(Br)cc1 (configuration not stated)", "inactive"],
  ["COC(=O)C(Cc1ccccc1)C(=O)C(CC(=O)OC(C)(C)C)NC(=O)OC(C)(C)C (configuration not stated)", "inactive"],
  ["COc1cc(Cc2nccc3cc(OC)c(OC)cc23)c(C(C)=O)cc1OC", "inactive"],
  ["Clc1ccc(/C=C/c2nc(Cl)c(-c3ccc(Cl)cc3)c(Cl)n2)cc1", "inactive"],
  ["CCN(CC)C(=S)Oc1cc(Cl)c(Cl)cc1Cl", "inactive"],
  ["CC(C)=NNC(=O)c1ccc(N)cc1", "inactive"],
  ["Cc1cccc2oc3c(c(=O)c12)CC(O)C(C)(C)O3 (configuration not stated)", "inactive"],
  ["CN(C)CCS(=O)(=O)c1ccc(Cl)cc1", "inactive"],
  ["CC(C)(C)CC(C)(C)c1ccc(O)c(CN2CCCCC2)c1", "inactive"],
  ["O=C1C(=O)c2ccccc2C(O)=C1C1CCCCC1", "inactive"],
  ["O=C1OC(c2ccccc2)=N/C1=C/C=C/c1ccco1", "inactive"],
  ["CC(=O)N(C(=O)CC(=O)NNCc1ccccc1Cl)c1ccc(Cl)cc1", "inactive"],
  ["O=[N+]([O-])c1ccc(/C=C(/c2ccc([N+](=O)[O-])o2)S(=O)(=O)c2ccccc2)cc1", "active"],
  ["NCCSS(=O)(=O)O", "inactive"],
  ["Cc1nc2c(n1-c1ccc(Br)cc1)C(=O)c1ccccc1C2=O", "inactive"],
  ["CN=c1ss/c(=N\\C(=S)N(C)C)n1C1CCCCC1", "inactive"],
  ["O=[N+]([O-])c1ccc(N=Cc2ccc(N(CCF)CCF)cc2)cc1", "inactive"],
  ["Clc1cccc(C2SCc3nc4ccccc4n32)c1 (configuration not stated)", "inactive"],
  ["CCCCN1C(=O)NC(Cc2ccccc2)C1=O (configuration not stated)", "inactive"],
  ["Nc1cccc(S(=O)(=O)NNc2cc(Cl)ccc2Cl)c1", "active"],
  ["CCOC(OCC)C(=O)NC(Cc1ccccc1NC(=O)c1ccccc1)c1ccc2c(c1)OCO2 (configuration not stated)", "inactive"],
  ["CCc1ccc(NS(=O)(=O)c2ccc(OC)cc2)cc1", "active"],
  ["O=C(O)c1nc2cn1/C=C\\C=NCC1=CN3C=CC=NC3(C(=O)O)N1C2 (configuration not stated)", "inactive"],
  ["CC(=O)C1=CC2(OC3CCC(O)(C(=O)CO)C(C)O3)C(=O)c3c(cc4cccc(O)c4c3O)CC2C(O)C1O (configuration not stated)", "inactive"],
  ["O=S1(=O)C(c2ccccc2)=C1c1ccccc1", "inactive"],
  ["C=C1CC(C)(COc2ccc3ccc(=O)oc3c2)OC1=O (configuration not stated)", "inactive"],
  ["O=c1[nH]c2nc3ccccc3c(=O)n2nc1Cc1ccccc1", "inactive"],
  ["CCN(CC)CCC(=O)c1ccc(Cl)cc1", "inactive"],
  ["O=C1CCC(c2nc3ccccc3[nH]2)N1Cc1ccccc1 (configuration not stated)", "inactive"],
  ["O=c1c2ccc(Cl)cc2nc2nc(-c3ccccc3)c3cc(Cl)ccc3n12", "inactive"],
  ["CC/C(C)=N\\NS(=O)(=O)c1ccc(NC(C)=O)cc1", "inactive"],
  ["CCOC(=O)c1cc([N+](=O)[O-])cnc1C", "inactive"]
]}
